Biological target: Aspartate--tRNA(Asp/Asn) ligase (Mycobacterium tuberculosis (strain ATCC 25618 / H37Rv)) (UniProt P9WFW3)
Sequence (P9WFW3 whole entry): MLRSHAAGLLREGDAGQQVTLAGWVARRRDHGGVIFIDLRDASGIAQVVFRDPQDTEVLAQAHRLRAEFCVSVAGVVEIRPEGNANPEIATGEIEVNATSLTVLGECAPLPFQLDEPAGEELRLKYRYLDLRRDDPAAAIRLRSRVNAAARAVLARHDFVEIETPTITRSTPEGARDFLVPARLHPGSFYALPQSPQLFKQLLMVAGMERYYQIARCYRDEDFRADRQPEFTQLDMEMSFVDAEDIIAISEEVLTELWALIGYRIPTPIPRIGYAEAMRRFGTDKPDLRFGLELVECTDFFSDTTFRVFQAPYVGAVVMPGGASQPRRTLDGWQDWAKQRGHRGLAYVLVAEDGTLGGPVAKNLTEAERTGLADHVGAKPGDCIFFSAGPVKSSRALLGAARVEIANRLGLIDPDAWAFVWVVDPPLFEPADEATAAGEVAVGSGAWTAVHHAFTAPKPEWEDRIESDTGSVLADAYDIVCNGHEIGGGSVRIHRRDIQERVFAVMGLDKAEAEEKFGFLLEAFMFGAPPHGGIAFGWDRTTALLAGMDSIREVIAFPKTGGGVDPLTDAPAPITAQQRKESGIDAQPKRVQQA
Test: Assay for Asp RNA synthetase-1 from Mycobacterium tuberculosis
Format: functional
Design: scale not given: in the data most compounds retested in dose-response had high values
Settings: 30 µM
endpoint: Percent Effect (%)
Unit % implied. Number only.

stdin: Record request: Percent Effect value, item CC(C)C(C)NC(=O)Nc1ccccc1CN1CCOCC1 (stereo unspecified)
stdout: 3.91

stdin: Look up Percent Effect for this molecule: O=c1[nH]c2nc(N3CCSCC3)ncc2c(=O)n1-c1cccc(F)c1
stdout: 13.7

stdin: Which Percent Effect value is on record for O=C(CN(Cc1ccccc1)CC1CCOCC1)Nc1nccs1 ?
stdout: 2.07

stdin: Entry Fc1ccc(-c2n[nH]cc2-c2ccnc(NCCN3CCCC3)n2)cc1 has what Percent Effect?
stdout: 8.63

stdin: Please give the measured Percent Effect for this molecule: Cc1ccccc1N1CCCN(C(=O)CCCS(N)(=O)=O)CC1
stdout: 6.58

stdin: Report Percent Effect for CN(Cc1ncc(C(C)(C)C)o1)C1CCCN(c2cccnn2)C1 (stereo unspecified) please.
stdout: 0.143

stdin: Consider the molecule shown here: O=C(C1CCC1)N1CCN(C(=O)c2cnccn2)[C@H]2CS(=O)(=O)C[C@H]21 What is its recorded Percent Effect?
stdout: -2.93

stdin: Consider the molecule Cc1ccc(-c2nc(CN3CCn4c(nnc4C4CC4)C3)cs2)o1 and give its measured Percent Effect.
stdout: -4.03

stdin: Quick check: Percent Effect of Cc1ccc(NC(=O)C2CSCN2C(=O)c2cnn(C)c2)c(C)c1 (stereo unspecified) ?
stdout: 0.456

stdin: What measured Percent Effect goes with CN(C)C[C@H]1OC[C@@H]2CCN(S(=O)(=O)c3cccs3)C[C@@H]21 ?
stdout: -0.29

stdin: Recorded Percent Effect of CCc1nc(CN2CCOC(Cn3nc(C)nc3C)C2)no1 (stereo unspecified) , please.
stdout: 3.17

----------
Molecular target: Aspartate--tRNA(Asp/Asn) ligase (Mycobacterium tuberculosis (strain ATCC 25618 / H37Rv))
Assay: Assay for Asp RNA synthetase-1 from Mycobacterium tuberculosis
Format: functional
Set-up: scale not given: in the data most compounds retested in dose-response had high values
Conditions: 30 µM
endpoint: Percent Effect

stdin: Field: Percent Effect (Aspartate--tRNA(Asp/Asn) ligase (Mycobacterium tuberculosis (strain ATCC 25618 / H37Rv))). Entry: c1ccc(CN2CCCC(c3nccnc3-n3ccnc3)C2)cc1 (configuration not stated)
stdout: 2.31%

stdin: Can you look up Percent Effect on Aspartate--tRNA(Asp/Asn) ligase (Mycobacterium tuberculosis (strain ATCC 25618 / H37Rv)) for Cc1ccccc1-c1cc(C(=O)NCCN2CCCS2(=O)=O)[nH]n1 ?
stdout: -2.39%

stdin: Give Aspartate--tRNA(Asp/Asn) ligase (Mycobacterium tuberculosis (strain ATCC 25618 / H37Rv)) Percent Effect for COc1c(C2CCCN2Cc2cc(C)no2)c(C)nn1C (configuration not stated)
stdout: 3.61%

stdin: Form: Entry = CCc1nc(C2CCCN2Cc2nnc(Cc3ccccc3)o2)no1 (configuration not stated) | System = Aspartate--tRNA(Asp/Asn) ligase (Mycobacterium tuberculosis (strain ATCC 25618 / H37Rv)) | Percent Effect = ____
stdout: -0.231%

stdin: Which Percent Effect is reported with Aspartate--tRNA(Asp/Asn) ligase (Mycobacterium tuberculosis (strain ATCC 25618 / H37Rv)) for this entry: CCn1c(N)nc2cc(C(=O)NCc3ccccc3Cl)cnc21 ?
stdout: 6.55%

stdin: # value lookup — system Aspartate--tRNA(Asp/Asn) ligase (Mycobacterium tuberculosis (strain ATCC 25618 / H37Rv)), readout Percent Effect, item COc1ccc(NC(=O)c2ccc[nH]2)c(N2CCN(C(C)=O)CC2)n1
stdout: 1.11%

stdin: Percent Effect of CNc1nc(CNC(=O)Nc2cccc(F)c2C)cs1 on Aspartate--tRNA(Asp/Asn) ligase (Mycobacterium tuberculosis (strain ATCC 25618 / H37Rv))?
stdout: -2.59%

stdin: Kindly state the measured Percent Effect obtained for c1ccc(CCN2CCN(c3ccc4nncn4n3)CC2)nc1 with Aspartate--tRNA(Asp/Asn) ligase (Mycobacterium tuberculosis (strain ATCC 25618 / H37Rv)).
stdout: 1.58%

stdin: Give recorded Percent Effect with Aspartate--tRNA(Asp/Asn) ligase (Mycobacterium tuberculosis (strain ATCC 25618 / H37Rv)) for the following compound: Cc1oc(-c2ccsc2)nc1CC(=O)NCCS(C)(=O)=O
stdout: 12.7%

stdin: Item: CCOc1cccc(C(=O)NCCC(=O)Nc2ccncc2)c1 Test system: Aspartate--tRNA(Asp/Asn) ligase (Mycobacterium tuberculosis (strain ATCC 25618 / H37Rv)) Read-out: Percent Effect Value: ?
stdout: -3.32%

stdin: What is its Percent Effect for Aspartate--tRNA(Asp/Asn) ligase (Mycobacterium tuberculosis (strain ATCC 25618 / H37Rv))? Entry: CC(C)c1nc(C2CCCN2CC(=O)Nc2nncs2)no1 (configuration not stated)
stdout: -6.57%

stdin: # query: Percent Effect | item Cc1ccc(CNCCOc2ccc(S(C)(=O)=O)cc2)cc1 | system: Aspartate--tRNA(Asp/Asn) ligase (Mycobacterium tuberculosis (strain ATCC 25618 / H37Rv))
stdout: 1.28%
